# test.system: hBrd4 BD2 (Homo sapiens, UniProt O60885)
# assay.notes: HTRF displacement of biotinylated H4Ac4 peptide
compounds and their reported IC50

Sample records with IC50:
INSERT INTO results (structure_notation, test_system, recorded_result) VALUES
  ('Cc1ccc(Nc2c(-c3ccc(O)cc3F)nc3c(C)cccn23)cc1', 'hBrd4 BD2 (Homo sapiens, UniProt O60885)', '> 20 µM'),
  ('Cc1ccc(Nc2c(-c3ccc(O)cc3)nc3c(C)cccn23)c(O)c1', 'hBrd4 BD2 (Homo sapiens, UniProt O60885)', '> 20 µM'),
  ('Cc1ccc(Nc2c(-c3ccc(O)cc3)nc3c(C)cccn23)cc1O', 'hBrd4 BD2 (Homo sapiens, UniProt O60885)', '> 20 µM'),
  ('Cc1ccc(Nc2c(-c3ccc(O)cc3)nc3c(Br)cccn23)cc1', 'hBrd4 BD2 (Homo sapiens, UniProt O60885)', '> 20 µM'),
  ('Cc1cccn2c(Nc3ccc(N)cc3)c(-c3ccc(O)cc3)nc12', 'hBrd4 BD2 (Homo sapiens, UniProt O60885)', '2.24 µM');

Query: IC50; subject: Cc1ccc(Nc2c(-c3ccc(O)c(F)c3)nc3c(C)cccn23)cc1
8.7 µM

Next record, please: Cc1ccc(Nc2c(-c3ccc(O)cc3)nc3c(I)cccn23)cc1
> 20 µM

Next record, please: Cc1ccc(Nc2c(-c3ccc(O)cc3)nc3c(Cl)cccn23)cc1
16 µM

Next record, please: Cc1ccc(Nc2c(-c3ccc(O)cc3)nc3c(C)cccn23)cc1
> 20 µM

Next record, please: Cc1cccn2c(Nc3ccc([N+](=O)[O-])cc3)c(-c3ccc(O)cc3)nc12
> 20 µM

Next record, please: Cc1cccn2c(Nc3ccc(Br)cc3)c(-c3ccc(O)cc3)nc12
12.8 µM

* * *

# test.system: CaBD2 (CaBdf1 BD2) (Candida albicans)
# Sequence (Q5A4W8 386-491): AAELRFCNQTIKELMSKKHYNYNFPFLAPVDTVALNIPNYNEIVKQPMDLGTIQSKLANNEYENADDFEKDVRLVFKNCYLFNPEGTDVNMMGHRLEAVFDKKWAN
# assay.notes: HTRF displacement of biotinylated H4Ac4 peptide
# Type: binding
result.type: IC50 (µM)

Sample records with IC50:
INSERT INTO measurements (structure_notation, result_type, recorded_result) VALUES
  ('Cc1ccc(Nc2c(-c3ccc(O)cc3)nc3c(I)cccn23)cc1', 'IC50', 1.01),
  ('Cc1ccc(Nc2c(-c3ccc(O)cc3)nc3c(Br)cccn23)cc1', 'IC50', 0.75),
  ('Cc1ccc(Nc2c(-c3ccc(O)c(F)c3)nc3c(C)cccn23)cc1', 'IC50', 6.3),
  ('Cc1ccc(Nc2c(-c3ccc(O)cc3F)nc3c(C)cccn23)cc1', 'IC50', 5.22),
  ('Cc1cccn2c(Nc3ccc(N)cc3)c(-c3ccc(O)cc3)nc12', 'IC50', 0.37),
  ('Cc1cccn2c(Nc3ccc(Br)cc3)c(-c3ccc(O)cc3)nc12', 'IC50', 4.35),
  ('Cc1cccn2c(Nc3ccc([N+](=O)[O-])cc3)c(-c3ccc(O)cc3)nc12', 'IC50', 4.39),
  ('Cc1ccc(Nc2c(-c3ccc(O)cc3)nc3c(C)cccn23)c(O)c1', 'IC50', 9.74);

[a] Cc1ccc(Nc2c(-c3ccc(O)cc3)nc3c(C)cccn23)cc1
[b] Cc1ccc(Nc2c(-c3ccc(O)cc3)nc3c(Cl)cccn23)cc1
Endpoint returns the identifier whose IC50 is numerically larger, either a or b . Reply with the label of the item you choose.
a
(a: 3.9 µM, b: 1.5 µM)
